Kindly supply the reported Percent monomer values for the records listed here.
assay: Analytical size exclusion chromatography (percent monomer); type: physicochemical; details: NEM-conjugated cysteine variants; SEC, Abs280 monomer region 5.5-6 minutes vs oligomer region 4-5.3 minutes
Give bare numbers, in %.

- molecule: "S52C (conjugate, left off: small tags and cut ends) LPAPKNLVVSEVTEDSARLSWDDPWAFYESFLIQYQESEKVGEAIVLTVPGCERSYDLTGLKPGTEYTVSIYGVHNVYKDTNMRGLPLSAIFTT"
  value_kind: "Percent monomer"
  assay_result: 100
- molecule: "V46C (conjugate, left off: small tags and cut ends) LPAPKNLVVSEVTEDSARLSWDDPWAFYESFLIQYQESEKVGEAICLTVPGSERSYDLTGLKPGTEYTVSIYGVHNVYKDTNMRGLPLSAIFTT"
  value_kind: "Percent monomer"
  assay_result: 100
- molecule: "L86C (conjugate, left off: small tags and cut ends) LPAPKNLVVSEVTEDSARLSWDDPWAFYESFLIQYQESEKVGEAIVLTVPGSERSYDLTGLKPGTEYTVSIYGVHNVYKDTNMRGCPLSAIFTT"
  value_kind: "Percent monomer"
  assay_result: 83

// below: Percent monomer requested for another molecule
Exam item: Dear colleague, I am looking for the recorded Percent monomer of the following molecule: M83C (conjugate, left off: small tags and cut ends) LPAPKNLVVSEVTEDSARLSWDDPWAFYESFLIQYQESEKVGEAIVLTVPGSERSYDLTGLKPGTEYTVSIYGVHNVYKDTNCRGLPLSAIFTT
Marked response: 91
